The measured values listed here are drawn from paper PMC10391911.

- measurement-protocol: In vitro protein-binding assay using equilibrium dialysis, brain homogenate
- Type: in vitro ADME, mouse
- recorded-conditions: mouse blank brain homogenate; 5 µM, mouse brain homogenate, 4 h dialysis; read-out: Fu, Brain
parameter: fraction unbound at 4 h, 5 µM
The response must contain the number and no unit.

Please look up its fraction unbound at 4 h, 5 µM: `O=C(O)Cc1ccc(Cc2cc(-c3cccc(Cl)c3)nc(C(F)(F)F)c2)cc1`
0.0014

----------
- measurement-protocol: In vitro protein-binding assay using equilibrium dialysis, brain homogenate
- Type: in vitro ADME, mouse
- recorded-conditions: mouse, brain homogenate
- Description: A rapid equilibrium dialysis device with inserts (cat no. #90,112, Thermo Fisher) was used for the protein-binding assay. […] The samples were incubated for 4 h in a shaking incubator (37℃, 300 rpm). […] The unbound fraction of drug (Fu) in plasma and brain tissue was calculated as follows based on previous studies: [drawing 3] […] The values were calculated using the measured diluted free fractions and the respective dilution factor.
parameter: fraction unbound at 4 h, 5 µM
The response must contain the number and no unit.

Please look up its fraction unbound at 4 h, 5 µM: O=C(Nc1c(Cl)cncc1Cl)c1ccc(OC(F)F)c(OCC2CC2)c1 [roflumilast]
0.0037

----------
- measurement-protocol: in vivo
- recorded-conditions: male, C57BL/6J, mouse, po, 10 mg/kg, AUClast
parameter: AUC(0-t) (ng·h/mL)
Kindly provide the numeric value in ng·h/mL only, without the unit symbol.

{"columns": ["compound", "observed-value"],
 "data": [
  ["O=C(Nc1c(Cl)cncc1Cl)c1ccc(OC(F)F)c(OCC2CC2)c1 [roflumilast]", 1130]
]}

From here, focus on the item given below.
Please look up its AUC(0-t): O=C(O)Cc1ccc(Cc2cc(-c3cccc(Cl)c3)nc(C(F)(F)F)c2)cc1 [zatolmilast]
30300

----------
- measurement-protocol: In vitro protein-binding assay using equilibrium dialysis, plasma
- Format: in vitro ADME, mouse
- recorded-conditions: pooled mouse plasma; 5 µM, mouse plasma, 4 h dialysis; read-out: Fu, Plasma
parameter: fraction unbound at 4 h, 5 µM
The response must contain the number and no unit.

Please look up its fraction unbound at 4 h, 5 µM: `O=C(O)Cc1ccc(Cc2cc(-c3cccc(Cl)c3)nc(C(F)(F)F)c2)cc1`
0.0026

----------
- measurement-protocol: in vivo
- recorded-conditions: male, C57BL/6J, mouse, po, 10 mg/kg
parameter: half-life (h)
Kindly provide the numeric value in h only, without the unit symbol.

{"columns": ["smiles", "reading-unit", "half-life"],
 "data": [
  ["O=C(O)Cc1ccc(Cc2cc(-c3cccc(Cl)c3)nc(C(F)(F)F)c2)cc1", "h", 20.4]
]}

From here, focus on the item given below.
Please look up its half-life: `O=C(Nc1c(Cl)cncc1Cl)c1ccc(OC(F)F)c(OCC2CC2)c1`
7.13

----------
- Test system: TNF-α production in LPS-induced BV-2 cells
- measurement-protocol: TNF-α production in LPS-induced BV-2 cells (ELISA)
- Type: cell-based, murine
- recorded-conditions: Mus musculus, BV-2; 1 h pretreatment, LPS 1 µg/mL 24 h; read-out: IC50 against TNF-α
parameter: pIC50
Friendly reminder that pIC50 comes from taking -log10 of the concentration in mol/L.

# get_value(readout= pIC50, system= TNF-α production in LPS-induced BV-2 cells) for `O=C(Nc1c(Cl)cncc1Cl)c1ccc(OC(F)F)c(OCC2CC2)c1`
7.91
